test system: MS2 coat protein; assay: apparent KD of MS2 coat protein, switch ON state; designed switch direction (-1 OFF switch, 1 ON switch): -1; higher = weaker reporter binding; conditions: FMN input: 0 or 200 uM; Eterna round: R93 (includes R88 designs)
Label rule, in plain words: apparent KD of MS2 coat protein of 0.04 µM and up is 1.0, under 0.04 µM is 0.0.

AACAGUACAGGAUAUACAUGAGGAUCACCCAUGUGGGAAUUAAGUGGCGUACCACAAUGUAGAAGGGUACUGGA [JL In the Red]
1.0
AGGAUGUCAGGAUAUGUGUAAAGAAUAAAAGAAAUAACAACACAGAAGGGACAUGAGGAUCACCCAUGUUAAAA [May 35]
1.0
GCUUUGCAAGGAUAUACAUGAGGAUCACCCAUGUGAGAGAAAAAAGUGAGAAAGAAAAGUAGAAGGUGCGGAGG [salish99-ex3-120]
0.0
AAAAAGUGAGGAUAUGUCAAAGGUCACGAAAGUGACAAAGGACAGAAGGCACAUGAGGAUCACCCAUGUGGGAA [Fiskers Exclusion 4D1 65% - Early + late G segment 1]
1.0

Please tell me: is the sequence AAAAAUGGAGGAUAUACAUGAGGAUCACCCAUGUGUAUAAAAAAAUACACAAAAGAAAGUAGAAGGCCAUAAAA [Ex 3 Ice] at or over 0.04 µM in terms of apparent KD of MS2 coat protein?
0.0

Let us now turn to AAAUACUAAGGAUAUACAUGAGGAUCACCCAUGUACAAACCCGUGGAACGGAUCGUUAGUAGAAGGUGGACAAA [Zaanrion]
0.0
